The entries below come with measured growth inhibition values attached.
METHOD_NOTES: NCI Yeast Anticancer Drug Screen. Data for the mec2-1 strain (AID 157)
CONDITIONS: S. cerevisiae mec2-1 strain, at 3.7 µM, stronger effect = higher value
Compounds without any hit were thinned out: in the full panel of roughly 79,000, 15% have a hit.

COMPOUND: Br[Se]c1ccccn1
growth inhibition (%): 34
//
COMPOUND: N#CC(C#N)=Cc1ccc(C#N)cc1
growth inhibition (%): 0
//
COMPOUND: O=C1OC2C(O1)C1(Cl)C(Cl)=C(Cl)C2(Cl)C1(Cl)Cl (configuration not stated)
growth inhibition (%): -4
//
COMPOUND: CC[C@@]1(O)C(=O)OCc2c1cc1n(c2=O)Cc2cc3c(NC(=O)CN)cccc3nc2-1
growth inhibition (%): -4
//
COMPOUND: Oc1cccc2cccnc12
growth inhibition (%): 85
//
COMPOUND: [N-]=[N+]=C1C(Cl)=C(Cl)C(Cl)=C1Cl
growth inhibition (%): 2
//
COMPOUND: CCC(=O)OC1CCn2c1nc1c2C(=O)C(C)=C(N2CC2)C1=O (configuration not stated)
growth inhibition (%): -2
